Measured absorption maximum by item
Assay: solvent given as SMILES
Details: in C1CCOC1
Give a bare numeral; the unit nm is implied.

Below are worked cases with known answers.
Smiles Input	Property	Unit Info	Test Result
N#Cc1c(N2CCCCC2)cc(-c2ccc3ccc4cccc5ccc2c3c45)c2c1Cc1ccccc1-2	absorption maximum	nm	344
CC1(C)CC(/C=C/c2ccc(-n3cccn3)cc2)=CC(=C(C#N)C#N)C1	absorption maximum	nm	405

Would you kindly look at the next entry?
In: Report absorption maximum for CCN(CC)c1ccc2cc(-c3cn4ccccc4n3)c(=O)oc2c1 please.
Out: 408

---

Assay: solvent given as SMILES
Settings: in CCO
Property: absorption maximum (nm)
Give a bare numeral; the unit nm is implied.

Compound	absorption maximum (nm)
CN(C)c1ccc2c(C(=O)NCc3ccccc3)cc(C(=O)[O-])nc2c1	403
CC(=O)OC[C@@H]1O[C@H](N2C=CC3=Nc4nc(C)[n+](C)cc4CN3C2=O)[C@@H](O)[C@H]1O	388

In: Report absorption maximum for CSc1sc(C(C)=O)c2nn[nH]c(=O)c12 please.
Out: 397

In: Report absorption maximum for CCCCn1c2ccc(/C=C(\C#N)c3ccc([N+](=O)[O-])cc3)cc2c2cc(Cn3c(-c4ccc5c(c4)c4ccccc4n5CCCC)nc4ccccc43)ccc21 please.
Out: 416

In: Report absorption maximum for O=C1CCCc2c1[nH]c1cc3c(cc21)OCO3 please.
Out: 338.86

In: Report absorption maximum for CCOC(=O)c1cc(C(=O)OCC)c2ccc(C)cc2n1 please.
Out: 321

In: Report absorption maximum for COc1ccc(C2CC(c3ccc(O)cc3)=NN2c2ccc(S(N)(=O)=O)cc2)cc1 (stereo unspecified) please.
Out: 358

In: Report absorption maximum for O=CC1=C(c2ccc(-c3cccs3)s2)CCC1 please.
Out: 386

In: Report absorption maximum for CCN(CC)c1ccc2cc(-c3cn4ccccc4n3)c(=O)oc2c1 please.
Out: 424

In: Report absorption maximum for O=C(N/N=C/c1ccccc1O)c1cccc2ccccc12 please.
Out: 400

In: Report absorption maximum for CC(C)[Si]1(C(C)C)c2cc(C=O)ccc2-c2ccc(N(c3ccccc3)c3ccccc3)cc21 please.
Out: 396

In: Report absorption maximum for O=C([O-])c1c(Cl)c(Cl)c(Cl)c(Cl)c1-c1c2cc(I)c(=O)c(I)c-2oc2c(I)c([O-])c(I)cc12 please.
Out: 558

In: Report absorption maximum for Cc1c(COC(=O)c2ccccc2)n2c(OCC(=O)c3ccccc3)c(C)c(=O)n2c1=O please.
Out: 381

In: Report absorption maximum for CCCCCCCCCCCCCCCCN(CCCCCCCCCCCCCCCC)c1ccc(/C=C/c2cc[n+](Cc3cc(C[n+]4ccc(/C=C/c5ccc(N(CCCCCCCCCCCCCCCC)CCCCCCCCCCCCCCCC)cc5)cc4)cc(C[n+]4ccc(/C=C/c5ccc(N(CCCCCCCCCCCCCCCC)CCCCCCCCCCCCCCCC)cc5)cc4)c3)cc2)cc1 please.
Out: 508

In: Report absorption maximum for Cc1c(COC(=O)Cc2ccccc2)n2c(OCC(=O)Cc3ccccc3)c(C)c(=O)n2c1=O please.
Out: 379

In: Report absorption maximum for N#CC1=C(c2ccc(-c3cccs3)s2)CCC1 please.
Out: 366

---

Test: solvent given as SMILES
Settings: in CN(C)C=O
The label depends only on absorption maximum: Criterion met if it is at least 400 nm, Criterion not met if it is smaller.

Here are 5 compounds together with their reported answers.
Compound	Label Class
COc1ccc2c(=O)c3c([nH]c2c1)-c1ccccc1NC3(C)C	Criterion met
O=S(=O)([O-])c1ccc(O)c2ccccc12	Criterion not met
COC(=O)C(Cc1ccc2oc(-c3ccc(N(C)C)cc3)nc2c1)NC(=O)OC(C)(C)C (stereo not given)	Criterion not met
CC(C)(C)c1ccc2oc(-c3ccc(-c4nc5cc(C(C)(C)C)ccc5o4)s3)nc2c1	Criterion not met
Cc1cc(O)c(C(C)C)cc1/N=C/c1ccc(C(F)(F)F)cc1	Criterion not met

In: Check the entry COc1cc(/C=C2/SC(=O)NC2=O)cc(OC)c1O : does absorption maximum equal or exceed 400 nm?
Out: Criterion not met

In: Check the entry O=C1NC(=O)c2ccc3c4ccc5c6c(ccc(c7ccc1c2c73)c64)C(=O)N(c1ccc(Cl)cc1)C5=O : does absorption maximum equal or exceed 400 nm?
Out: Criterion met

---

Measured absorption maximum by item
Assay: solvent given as SMILES
Details: in CCOC(C)=O
Answer format: number, then unit.

Below are worked cases with known answers.
Smiles Input	Property	Test Result
Cc1ccccc1C1=C2C=c3c(oc4ccc(F)cc34)=[N+]2[B-](F)(F)n2c1cc1c3cc(F)ccc3oc12	absorption maximum	576.5 nm
CCOC(=O)CN(CC(=O)OCC)c1ccc(-c2cc(-c3ccncc3)nc(-c3ccncc3)c2)cc1	absorption maximum	334 nm
COc1ccc2oc(-c3cc4cc(OC)ccc4oc3=O)cc2c1	absorption maximum	384 nm
CCN(CC)c1ccc2c(C)cc(=O)oc2c1	absorption maximum	361 nm

In: Report absorption maximum for CC(=O)c1nc(-c2ccc(C)cc2)oc1C please.
Out: 273 nm

In: Report absorption maximum for Cn1c(=O)c(/N=N/c2cc(S(=O)(=O)O)ccc2S(=O)(=O)O)c(O)c2ccccc21 please.
Out: 423 nm

In: Report absorption maximum for CCc1c(C)c2n(c1C)[B-](F)(F)[N+]1=C(NCc3ccc(OC)cc3)C=CC1=C2C please.
Out: 527 nm

In: Report absorption maximum for CCN(CC)c1ccc(-c2nc3c(c4c2-c2ccc(C#N)cc2CC4)-c2ccc(C#N)cc2CC3)cc1 please.
Out: 358 nm

In: Report absorption maximum for N#Cc1ccc2c(c1)CCc1nc(-c3ccc([N+](=O)[O-])cc3)c3c(c1-2)CCc1cc(C#N)ccc1-3 please.
Out: 329 nm

In: Report absorption maximum for CCOC(=O)CN(CC(=O)OCC)c1ccc(-c2cc(-c3cccnc3)nc(-c3cccnc3)c2)cc1 please.
Out: 328 nm

In: Report absorption maximum for CC(C)(C)c1cc2ccc3cccc4c3c2c(c1)c1nc2c3cc(C(C)(C)C)cc5ccc6cccc(c(=O)n2c41)c6c53 please.
Out: 390 nm

In: Report absorption maximum for CCN1CCN(c2ccc(/N=N/c3cc([N+](=O)[O-])cc([N+](=O)[O-])c3)cc2)CC1 please.
Out: 454 nm

---

Measured absorption maximum by item
Assay: solvent given as SMILES
Details: in Cc1ccccc1
Give a bare numeral; the unit nm is implied.

Below are worked cases with known answers.
Molecule	absorption maximum [nm]
O=C1c2ccccc2-c2ccc(Nc3nc(Cl)nc(Cl)n3)c3cccc1c23	411.02
N#C/C(=C\c1cn(-c2ccccc2)nc1-c1ccc([N+](=O)[O-])cc1)c1nc2ccccc2s1	383
O=c1c2ccccc2n2c3ccccc3c(=O)c3cc(-c4ccccc4)cc1c32	445.76
CCC1(CC)c2cc(/C=C/c3cc(Br)c(/C=C/c4ccc5c(c4)C(CC)(CC)c4cc(N6c7ccccc7Sc7ccccc76)ccc4-5)cc3Br)ccc2-c2ccc(N3c4ccccc4Sc4ccccc43)cc21	439.91
COC1(OC)C2(Cl)c3nc4cc(-c5cccs5)ccc4nc3C1(Cl)C1C[C@H]3[C@@H](CC12)C1(Cl)c2nc4ccc(-c5cccs5)cc4nc2C3(Cl)C1(OC)OC (some centres undefined)	362

In: Report absorption maximum for COc1cc(C2=c3c(c4ccc(C(C)(C)C)cc4c4c(OC)c(OC)c(OC)cc34)=[N+]3C2=Nc2c(-c4cc(OC)c(OC)c(OC)c4)c4c5cc(OC)c(OC)c(OC)c5c5cc(C(C)(C)C)ccc5c4n2[B-]3(F)F)cc(OC)c1OC please.
Out: 808

In: Report absorption maximum for CN(C)c1ccc2cc3c(cc2c1)OCCN=C3 please.
Out: 355

In: Report absorption maximum for c1ccc(-c2ccc3c(c2)c2cc(-c4ccccc4)ccc2n3-c2ccc3c(c2)c2cc(-n4c5ccc(-c6ccccc6)cc5c5cc(-c6ccccc6)ccc54)ccc2n3-c2ccc(-c3nc(-c4ccccc4)nc(-c4ccccc4)n3)cc2)cc1 please.
Out: 362

In: Report absorption maximum for c1ccc2c(c1)Sc1ccccc1N2c1ccc2c(c1)C1(CCCC1)c1cc(N3c4ccccc4Sc4ccccc43)ccc1-2 please.
Out: 308

---

Experiment: solvent given as SMILES
Settings: in CO
The label depends only on absorption maximum: true (1) if it is at least 500 nm, false (0) if it is smaller.

Smiles Input	Label Class
COc1ccc(-c2nc3c(c4c2-c2ccc(C#N)cc2CC4)-c2ccc(C#N)cc2CC3)cc1	false (0)
C(=C\c1cc[n+]2ccc(/C=C/c3cc[nH]c3)cc2c1)/c1cc[nH]c1	false (0)

In: Check the entry O=C1c2ccc3c4ccc5c6c(ccc(c7ccc(c2c37)C(=O)N1c1ccncc1)c64)C(=O)N(c1ccncc1)C5=O : does absorption maximum equal or exceed 500 nm?
Out: true (1)

In: Check the entry CC1(C)C(/C=C/C2=C(Cl)C(=C/C=C3/N(Cc4ccc(C(=O)O)cc4)c4ccccc4C3(C)C)/CCC2)=[N+](Cc2ccc(C(=O)O)cc2)c2ccccc21 : does absorption maximum equal or exceed 500 nm?
Out: true (1)

In: Check the entry Cn1c(=O)c(/N=N/c2ccc(/N=N/c3ccc(S(=O)(=O)O)cc3)cc2)c(O)c2ccccc21 : does absorption maximum equal or exceed 500 nm?
Out: false (0)

In: Check the entry Cc1nc(-c2ccccc2)c2ccccn12 : does absorption maximum equal or exceed 500 nm?
Out: false (0)
